Values were extracted from PubChem BioAssay.

composite z-score reference
# procedure.details: probe aNOTCH3 binding on compound microarray – biochemical, small-molecule microarray, 635/667 nm fluorescence, primary screen (AID 1120);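 also: probe is a biotin-tagged antibody raised against NOTCH3 rather than NOTCH3 protein; score merges spot fluorescence near 667 nm with spot signal to noise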
# condition.info: higher = more signal
quantity: composite z-score

- CC(=O)NCCCC[C@@H]1NC(=O)[C@@H]2C[C@H](C(=O)NCCCCCN)[C@H](c3cccc(OCCO)c3)N2C1=O: 0.324
- COCC(=C=CC[C@H](O)c1ccc(OCCO)cc1)CCO: -0.0298
- CCCC1(C(=O)OC)C=C2C(=C(C)C(=O)C2C)CN1 (stereo not drawn): 0.0416
- O=C(O)[C@@H]1C[C@@H]2C(=O)N3CCC[C@H]3C(=O)N2[C@@H]1c1ccc(O)cc1: 0.0927
- COc1ccc([Si](C)(C)[C@@H]2[C@@H](CC(=O)N3Cc4ccccc4C[C@H]3CO)O[C@]3(C(=O)N(Cc4ccc(N5C(=O)c6cccc7cccc5c67)cc4)c4ccccc43)[C@H]2C)cc1: 0.171
- CCCCNC(=O)c1ccc(C#CC(C)(C)C)c(OC(C)=O)c1: 0.0744
- C=CCOC(=O)[C@@]1(Cc2ccccc2)C[C@H]2CO[C@H](c3ccc(OC)cc3)N2C1=O: -0.0615
- CO[C@H]1O[C@H](CO)[C@@H](OC(=O)Nc2ccc3c(c2)OCO3)[C@H](OC(=O)Nc2ccc3c(c2)OCO3)[C@@H]1OC(=O)Nc1ccc2c(c1)OCO2: 0.0789
